# Test system: Pseudomonas aeruginosa
# measurement-notes: Antibacterial activity against Pseudomonas aeruginosa ATCC 27853 by micro broth dilution method
# Format: functional
measurement-name: MIC (µg/mL)
Quick reminder: number only, in µg/mL, skip the unit.

The examples below pair each entry with its known result.
>  <input-smiles>
O=C(O)c1cn(C2CC2)c2cc(N3CCN(Cc4nc5ccccc5[nH]4)CC3)c(F)cc2c1=O

>  <assay-target>
Pseudomonas aeruginosa

>  <MIC, µg/mL>
0.5

$$$$
>  <input-smiles>
O=C(O)c1cn(C2CC2)c2cc(N3CCN(Cc4nc5ccccc5n4Cc4cccc(Cl)c4)CC3)c(F)cc2c1=O

>  <assay-target>
Pseudomonas aeruginosa

>  <MIC, µg/mL>
0.125

$$$$
>  <input-smiles>
CCn1cc(C(=O)O)c(=O)c2cc(F)c(N3CCN(Cc4nc5ccccc5n4Cc4ccc(Cl)cc4Cl)CC3)cc21

>  <assay-target>
Pseudomonas aeruginosa

>  <MIC, µg/mL>
1

$$$$
>  <input-smiles>
CCn1cc(C(=O)O)c(=O)c2cc(F)c(N3CCN(Cc4nc5ccccc5n4Cc4ccc(F)cc4)CC3)cc21

>  <assay-target>
Pseudomonas aeruginosa

>  <MIC, µg/mL>
8

$$$$
>  <input-smiles>
O=C(O)c1cn(C2CC2)c2cc(N3CCN(CNc4nc5ccccc5[nH]4)CC3)c(F)cc2c1=O

>  <assay-target>
Pseudomonas aeruginosa

>  <MIC, µg/mL>
0.5

$$$$
>  <input-smiles>
CCn1cc(C(=O)O)c(=O)c2cc(F)c(N3CCN(Cc4nc5ccccc5n4CC)CC3)cc21

>  <assay-target>
Pseudomonas aeruginosa

>  <MIC, µg/mL>
32

$$$$
>  <input-smiles>
CCn1cc(C(=O)O)c(=O)c2cc(F)c(N3CCN(Cc4nc5ccc(F)cc5[nH]4)CC3)cc21

>  <assay-target>
Pseudomonas aeruginosa

>  <MIC, µg/mL>
4

$$$$
>  <input-smiles>
CCCCCCCCCCCCCCCCCCn1c(CN2CCN(c3cc4c(cc3F)c(=O)c(C(=O)O)cn4C3CC3)CC2)nc2ccccc21

>  <assay-target>
Pseudomonas aeruginosa

>  <MIC, µg/mL>
32

$$$$

// MIC lookup, key: CCCCCCCCCCCCn1c(CN2CCN(c3cc4c(cc3F)c(=O)c(C(=O)O)cn4CC)CC2)nc2ccccc21 256

// MIC lookup, key: CCCCCCCCCCCCn1c(CN2CCN(c3cc4c(cc3F)c(=O)c(C(=O)O)cn4C3CC3)CC2)nc2ccccc21 4

// MIC lookup, key: O=C(O)c1cn(C2CC2)c2cc(N3CCN(CCc4nc5ccccc5[nH]4)CC3)c(F)cc2c1=O 0.5

* * *

# maps each entry to its MIC
# Test system: Staphylococcus aureus
# measurement-notes: Antibacterial activity against Staphylococcus aureus ATCC 25923 by micro broth dilution method
# Assay type: functional
Quick reminder: number only, in µg/mL, skip the unit.

// MIC lookup, key: CCn1cc(C(=O)O)c(=O)c2cc(F)c(N3CCN(Cc4nc5ccccc5n4Cc4cccc(F)c4)CC3)cc21 128

* * *

# measurement-notes: Antifungal activity against Candida mycoderma ATCC 9888 after 24 hrs by micro broth dilution method
# Type: functional
# particulars: Candida vini
measurement-name: MIC80 (µg/mL)
Quick reminder: number only, in µg/mL, skip the unit.

The examples below pair each entry with its known result.
>  <input-smiles>
O=C(O)c1cn(C2CC2)c2cc(N3CCN(Cc4nc5ccc(F)cc5[nH]4)CC3)c(F)cc2c1=O

>  <val>
2

$$$$
>  <input-smiles>
CCCCCCCCn1c(CN2CCN(c3cc4c(cc3F)c(=O)c(C(=O)O)cn4CC)CC2)nc2ccccc21

>  <val>
2

$$$$
>  <input-smiles>
CCCn1c(CN2CCN(c3cc4c(cc3F)c(=O)c(C(=O)O)cn4CC)CC2)nc2ccccc21

>  <val>
2

$$$$
>  <input-smiles>
CCCn1c(CN2CCN(c3cc4c(cc3F)c(=O)c(C(=O)O)cn4C3CC3)CC2)nc2ccccc21

>  <val>
0.5

$$$$
>  <input-smiles>
CCn1cc(C(=O)O)c(=O)c2cc(F)c(N3CCN(Cc4nc5ccc(Br)cc5[nH]4)CC3)cc21

>  <val>
32

$$$$
>  <input-smiles>
CCn1cc(C(=O)O)c(=O)c2cc(F)c(N3CCN(Cc4nc5ccccc5n4CC)CC3)cc21

>  <val>
0.25

$$$$

// MIC80 lookup, key: O=C(O)c1cn(C2CC2)c2cc(N3CCN(Cc4nc5ccccc5n4Cc4ccccc4Cl)CC3)c(F)cc2c1=O 4

// MIC80 lookup, key: CCn1cc(C(=O)O)c(=O)c2cc(F)c(N3CCN(Cc4nc5ccccc5n4Cc4ccc(Cl)cc4Cl)CC3)cc21 1

// MIC80 lookup, key: COC(=O)c1cn(C2CC2)c2cc(N3CCN(/C=N\c4nc5ccccc5[nH]4)CC3)c(F)cc2c1=O 16

// MIC80 lookup, key: O=C(O)c1cn(C2CC2)c2cc(N3CCN(CCc4nc5ccccc5[nH]4)CC3)c(F)cc2c1=O 2

// MIC80 lookup, key: CCn1cc(C(=O)O)c(=O)c2cc(F)c(N3CCN(CNc4nc5ccccc5[nH]4)CC3)cc21 1

// MIC80 lookup, key: CCCCCCCCCCCCn1c(CN2CCN(c3cc4c(cc3F)c(=O)c(C(=O)O)cn4CC)CC2)nc2ccccc21 128

// MIC80 lookup, key: CCn1cc(C(=O)O)c(=O)c2cc(F)c(N3CCN(CCc4nc5ccccc5[nH]4)CC3)cc21 64

// MIC80 lookup, key: CCCCCCn1c(CN2CCN(c3cc4c(cc3F)c(=O)c(C(=O)O)cn4C3CC3)CC2)nc2ccccc21 8

// MIC80 lookup, key: O=C(O)c1cn(C2CC2)c2cc(N3CCN(Cc4nc5ccc([N+](=O)[O-])cc5[nH]4)CC3)c(F)cc2c1=O 8

// MIC80 lookup, key: O=C(O)c1cn(C2CC2)c2cc(N3CCN(Cc4nc5ccc(Br)cc5[nH]4)CC3)c(F)cc2c1=O 16

// MIC80 lookup, key: O=C(O)c1cn(C2CC2)c2cc(N3CCN(Cc4nc5ccccc5n4Cc4ccccc4F)CC3)c(F)cc2c1=O 16

* * *

# maps each entry to its log10(MIC)
# Tested on: Bacillus spizizenii
# measurement-notes: Antibacterial activity against Bacillus subtilis ATCC 6633 by micro broth dilution method
# Format: functional
Plainly stated, the numbers are log10 of MIC given in µg/mL.

>  <input-smiles>
CCn1cc(C(=O)O)c(=O)c2cc(F)c(N3CCN(Cc4nc5ccccc5n4Cc4ccc([N+](=O)[O-])cc4)CC3)cc21

>  <measurement-name>
log10(MIC)

>  <val>
0.30

$$$$
>  <input-smiles>
O=C(O)c1cn(C2CC2)c2cc(N3CCN(Cc4nc5ccccc5n4Cc4cccc(Cl)c4)CC3)c(F)cc2c1=O

>  <measurement-name>
log10(MIC)

>  <val>
0.60

$$$$
>  <input-smiles>
O=C(O)c1cn(C2CC2)c2cc(N3CCN(Cc4nc5ccccc5n4Cc4ccc(Cl)cc4Cl)CC3)c(F)cc2c1=O

>  <measurement-name>
log10(MIC)

>  <val>
0.60

$$$$
>  <input-smiles>
CCn1cc(C(=O)O)c(=O)c2cc(F)c(N3CCN(Cc4nc5ccccc5[nH]4)CC3)cc21

>  <measurement-name>
log10(MIC)

>  <val>
0.00

$$$$
>  <input-smiles>
O=C(O)c1cn(C2CC2)c2cc(N3CCN(Cc4nc5ccccc5[nH]4)CC3)c(F)cc2c1=O

>  <measurement-name>
log10(MIC)

>  <val>
-0.90

$$$$

// log10(MIC) lookup, key: O=C(O)c1cn(C2CC2)c2cc(N3CCN(Cc4nc5ccccc5n4Cc4ccccc4F)CC3)c(F)cc2c1=O 0.90

// log10(MIC) lookup, key: CCCCCn1c(CN2CCN(c3cc4c(cc3F)c(=O)c(C(=O)O)cn4C3CC3)CC2)nc2ccccc21 0.60

// log10(MIC) lookup, key: O=C(O)c1cn(C2CC2)c2cc(N3CCN(Cc4nc5ccc(F)cc5[nH]4)CC3)c(F)cc2c1=O -0.30

* * *

# System: Escherichia coli
# measurement-notes: Antibacterial activity against Escherichia coli DH52 by micro broth dilution method
# Type: functional
# maps each entry to its MIC
Quick reminder: number only, in µg/mL, skip the unit.

The examples below pair each entry with its known result.
>  <input-smiles>
COC(=O)c1cn(C2CC2)c2cc(N3CCN(/C=N\c4nc5ccccc5[nH]4)CC3)c(F)cc2c1=O

>  <assay-target>
Escherichia coli

>  <val>
8

$$$$
>  <input-smiles>
CCn1cc(C(=O)O)c(=O)c2cc(F)c(N3CCN(Cc4nc5ccc(F)cc5[nH]4)CC3)cc21

>  <assay-target>
Escherichia coli

>  <val>
16

$$$$
>  <input-smiles>
CCn1cc(C(=O)O)c(=O)c2cc(F)c(N3CCN(Cc4nc5ccc(Cl)cc5[nH]4)CC3)cc21

>  <assay-target>
Escherichia coli

>  <val>
0.5

$$$$
>  <input-smiles>
CCCCCCCCCCn1c(CN2CCN(c3cc4c(cc3F)c(=O)c(C(=O)O)cn4C3CC3)CC2)nc2ccccc21

>  <assay-target>
Escherichia coli

>  <val>
128

$$$$
>  <input-smiles>
O=C(O)c1cn(C2CC2)c2cc(N3CCN(Cc4nc5ccccc5n4Cc4ccc(Cl)cc4Cl)CC3)c(F)cc2c1=O

>  <assay-target>
Escherichia coli

>  <val>
0.125

$$$$

State its MIC on Escherichia coli: CCCCCCCCCCCCn1c(CN2CCN(c3cc4c(cc3F)c(=O)c(C(=O)O)cn4C3CC3)CC2)nc2ccccc21 8

State its MIC on Escherichia coli: O=C(O)c1cn(C2CC2)c2cc(N3CCN(Cc4nc5ccc(F)cc5[nH]4)CC3)c(F)cc2c1=O 1

State its MIC on Escherichia coli: CCn1cc(C(=O)O)c(=O)c2cc(F)c(N3CCN(Cc4nc5ccc([N+](=O)[O-])cc5[nH]4)CC3)cc21 8

Each recorded value in this set is attributed to ChEMBL document CHEMBL3769303.
